- assay-target: Metabotropic glutamate receptor 5 (Rattus norvegicus, UniProt P31424)
- Sequence (P31424 whole entry): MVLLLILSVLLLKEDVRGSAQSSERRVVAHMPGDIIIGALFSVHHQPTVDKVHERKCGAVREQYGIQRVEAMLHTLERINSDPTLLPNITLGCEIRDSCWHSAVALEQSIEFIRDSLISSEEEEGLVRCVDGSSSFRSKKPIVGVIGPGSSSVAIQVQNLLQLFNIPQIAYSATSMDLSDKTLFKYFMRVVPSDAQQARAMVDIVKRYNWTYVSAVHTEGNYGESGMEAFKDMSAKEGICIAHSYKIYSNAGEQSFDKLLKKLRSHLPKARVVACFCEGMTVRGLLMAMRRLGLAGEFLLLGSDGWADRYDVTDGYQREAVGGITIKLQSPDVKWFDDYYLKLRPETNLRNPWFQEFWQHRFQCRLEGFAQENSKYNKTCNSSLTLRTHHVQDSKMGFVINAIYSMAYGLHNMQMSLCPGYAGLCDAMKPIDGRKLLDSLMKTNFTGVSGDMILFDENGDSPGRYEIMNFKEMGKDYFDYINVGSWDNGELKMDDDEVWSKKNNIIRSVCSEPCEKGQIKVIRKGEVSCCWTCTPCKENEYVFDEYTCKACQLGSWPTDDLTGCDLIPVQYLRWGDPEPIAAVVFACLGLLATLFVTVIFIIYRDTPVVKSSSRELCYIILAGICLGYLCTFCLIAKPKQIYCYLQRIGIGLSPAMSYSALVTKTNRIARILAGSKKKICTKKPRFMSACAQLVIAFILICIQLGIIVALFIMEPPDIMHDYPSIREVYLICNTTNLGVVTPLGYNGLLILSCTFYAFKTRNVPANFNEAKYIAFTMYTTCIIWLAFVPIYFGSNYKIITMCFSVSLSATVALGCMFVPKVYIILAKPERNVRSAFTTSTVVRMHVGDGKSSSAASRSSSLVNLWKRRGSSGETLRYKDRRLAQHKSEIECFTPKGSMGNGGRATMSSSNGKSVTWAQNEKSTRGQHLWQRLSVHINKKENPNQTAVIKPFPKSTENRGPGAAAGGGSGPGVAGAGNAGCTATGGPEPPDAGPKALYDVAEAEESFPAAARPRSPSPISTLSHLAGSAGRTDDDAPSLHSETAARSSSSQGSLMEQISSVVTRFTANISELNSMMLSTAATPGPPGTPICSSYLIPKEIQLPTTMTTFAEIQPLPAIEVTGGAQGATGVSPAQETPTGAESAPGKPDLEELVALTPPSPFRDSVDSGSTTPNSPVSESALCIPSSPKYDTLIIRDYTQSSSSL
- test: Negative allosteric modulation of rat mGluR5 expressed in HEK293 assessed as decrease in intracellular calcium incubated for 30 mins by Fluo-6 calcium dye based FLIPR assay
Just a reminder that ties go to 0 (no): only IC50 strictly below 1000 nM counts as 1 (yes).

Lab note: IC50 threshold 1000 nM. Does this compound come in strictly under it? `Cc1ccc(C#Cc2ncnc3c2cc(C(=O)Nc2ccc(C)cc2)n3C)cc1`
1 (yes)

Lab note: IC50 threshold 1000 nM. Does this compound come in strictly under it? `COc1ccc(C#Cc2ncnc3c2cc(C(=O)Nc2ccc(OC)cc2)n3C)cc1`
1 (yes)

Lab note: IC50 threshold 1000 nM. Does this compound come in strictly under it? `CN(C)c1ccc(NC(=O)c2cc3c(C#Cc4ccccc4)ncnc3n2C)cc1`
1 (yes)

Lab note: IC50 threshold 1000 nM. Does this compound come in strictly under it? `Cn1c(C(=O)Nc2ccccc2)cc2c(C#Cc3ccccc3)ncnc21`
1 (yes)

Lab note: IC50 threshold 1000 nM. Does this compound come in strictly under it? `Cn1c(C(=O)Nc2ccc(I)cc2)cc2c(C#Cc3ccccc3)ncnc21`
1 (yes)

Lab note: IC50 threshold 1000 nM. Does this compound come in strictly under it? `Cn1c(C(=O)Nc2ccc(C(C)(C)C)cc2)cc2c(C#Cc3ccccc3)ncnc21`
0 (no)

Lab note: IC50 threshold 1000 nM. Does this compound come in strictly under it? `Cn1c(C(=O)Nc2ccc(Cl)cc2)cc2c(C#Cc3ccccc3)ncnc21`
1 (yes)

Lab note: IC50 threshold 1000 nM. Does this compound come in strictly under it? `Cn1c(C(=O)Nc2ccc(F)cc2)cc2c(C#Cc3ccccc3)ncnc21`
1 (yes)

Lab note: IC50 threshold 1000 nM. Does this compound come in strictly under it? `Cc1ccc(NC(=O)c2cc3c(C#Cc4csc(C)n4)ncnc3n2C)cc1`
0 (no)

Lab note: IC50 threshold 1000 nM. Does this compound come in strictly under it? `Cc1ccc(NC(=O)c2cc3c(C#Cc4ccccc4)ncnc3n2C)cc1`
1 (yes)

Lab note: IC50 threshold 1000 nM. Does this compound come in strictly under it? `COc1ccc(NC(=O)c2cc3c(C#Cc4ccc(F)cc4)ncnc3n2C)cc1`
1 (yes)

Lab note: IC50 threshold 1000 nM. Does this compound come in strictly under it? `COc1ccc(NC(=O)c2cc3c(C#Cc4csc(C)n4)ncnc3n2C)cc1`
1 (yes)

Lab note: IC50 threshold 1000 nM. Does this compound come in strictly under it? `Cc1nc(C#Cc2ncnc3c2cc(C(=O)Nc2ccccc2)n3C)cs1`
0 (no)

Lab note: IC50 threshold 1000 nM. Does this compound come in strictly under it? `Cn1c(C(=O)Nc2ccc(Cl)c(Cl)c2)cc2c(C#Cc3ccccc3)ncnc21`
0 (no)

Lab note: IC50 threshold 1000 nM. Does this compound come in strictly under it? `Cn1c(C(=O)Nc2ccc(C(C)(C)C)cc2)cc2c(C#Cc3ccc(F)cc3)ncnc21`
0 (no)

Lab note: IC50 threshold 1000 nM. Does this compound come in strictly under it? `Cc1nc(C#Cc2ccnc(Cl)c2)c(C)n1-c1ccc(F)cc1`
1 (yes)

Lab note: IC50 threshold 1000 nM. Does this compound come in strictly under it? `Cn1c(C(=O)Nc2ccc(OC(F)(F)F)cc2)cc2c(C#Cc3ccccc3)ncnc21`
1 (yes)

Data origin: ChEMBL document CHEMBL5634139
